In this section, each of the binders is paired with its reported Top (MFI).
Biological target: T1, human LIV-1 (human, UniProt Q13433 29-755)
T1 construct: whole, on cells; also called H-LIV1
T1 sequence (looked up): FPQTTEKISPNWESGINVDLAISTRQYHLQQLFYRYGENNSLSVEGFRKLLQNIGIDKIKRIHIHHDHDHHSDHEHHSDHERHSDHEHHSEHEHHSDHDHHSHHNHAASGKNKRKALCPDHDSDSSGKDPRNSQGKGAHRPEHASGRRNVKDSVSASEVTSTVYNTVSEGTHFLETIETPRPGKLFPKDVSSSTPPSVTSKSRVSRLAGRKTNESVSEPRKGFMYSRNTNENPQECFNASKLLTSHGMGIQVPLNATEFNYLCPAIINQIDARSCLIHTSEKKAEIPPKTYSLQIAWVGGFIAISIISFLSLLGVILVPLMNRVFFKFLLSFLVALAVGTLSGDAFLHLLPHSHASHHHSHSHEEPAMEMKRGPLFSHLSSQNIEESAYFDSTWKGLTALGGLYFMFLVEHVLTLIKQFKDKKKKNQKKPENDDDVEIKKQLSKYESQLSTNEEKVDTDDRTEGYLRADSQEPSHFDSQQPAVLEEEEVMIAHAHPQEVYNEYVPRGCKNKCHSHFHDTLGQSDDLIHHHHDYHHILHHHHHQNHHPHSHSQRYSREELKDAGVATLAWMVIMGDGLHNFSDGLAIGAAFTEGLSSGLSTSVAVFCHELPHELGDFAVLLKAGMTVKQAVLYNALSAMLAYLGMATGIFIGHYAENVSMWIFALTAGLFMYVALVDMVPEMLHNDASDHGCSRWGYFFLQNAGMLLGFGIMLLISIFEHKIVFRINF
Assay: FACS, HEK293/H_LIV-1 cells
Kindly provide the numeric value in MFI only, without the unit symbol.

Ask | Fill blank: measured Top (MFI) of the binder 50H12B3 (antibody, V domains shown, Tested as chimeric antibody) VH: QVQLKQSGPGLVQPSQSLSITCTVSGFSLTSYGVHWVRQSPGKGLEWLGVIWTGGTTDYNAAFKSRLSISKDNSKSQVFFKMNSLQANDTAIYYCARGPSSYWGQGTLVTVSA VL: DIVMTQSQKFMSTSVGDRVSVTCKASQNVDTNVVWYQQKPGQSPKALIHSTSYRYSGVPDRFTGSGSGTDFTLTISNVQSEDLAEYFCQQYNNYPWTFGGGTKLEIK is ____.
Reply | 63000

***
Ask | Fill blank: measured Top (MFI) of the binder 90H4F8 (antibody, V domains shown, Tested as chimeric antibody) VH: QVQLQQSGPELVKPGASVRISCKASGYTFTSYHMHWVKQRPGQGLEWIGWIYPGNVKNQSNEKFKGKATLTADKSSSTAYMHLSSLTSEDSAVYFCARSDITRAFFAYWGQGTLVTVSA VL: DVLMTQTPLSLPVSLGDQASISCRSSQSIVHSNGNTYLEWYLQKPGQSPKLLIYKVSNRFSGVPDRFSGSGSGTDFTLKISRVEAEDLGVYYCFQGSHGPYTFGGGTKLEIK is ____.
Reply | 12200
